Consider the following compounds; for each one, report its GI50.
Test system: MOLT-4
Test: NCI tumour cell line growth inhibition, 48 h
Calls of active or inactive are those of the source. Cut-off read from the data, not from the text of the source: active = GI50 up to about 1.1 µM and inactive = higher.

Qu. Could you share which GI50 value was measured for `O=c1[nH]nc(-c2ccccc2)n1/N=C/c1cccs1` ?
Ans. 31.6 µM (inactive)

Qu. Could you share which GI50 value was measured for CCOP(=O)(OCC)C(Cc1cn(S(=O)(=O)c2ccc(C)cc2)cn1)C(=O)O (stereo not given) ?
Ans. > 100 µM (inactive)

Qu. Could you share which GI50 value was measured for FC(F)(F)C1(Cl)C(Cl)(c2ccccc2)C1(Cl)c1ccccc1 (stereo not given) ?
Ans. 10.3 µM (inactive)

Qu. Could you share which GI50 value was measured for `COC(=O)c1cc(=O)nc2cc3cccccc3n12` ?
Ans. > 100 µM (inactive)

Qu. Could you share which GI50 value was measured for CC(=O)OCC12C(=O)C[C@@H](C)C3(CC(c4ccoc4)OC3=O)C1CCC(OC(C)=O)C21CO1 (stereo not given in full) ?
Ans. > 100 µM (inactive)
